# System: Papain (Carica papaya) (UniProt P00784)
# Sequence (P00784 whole entry): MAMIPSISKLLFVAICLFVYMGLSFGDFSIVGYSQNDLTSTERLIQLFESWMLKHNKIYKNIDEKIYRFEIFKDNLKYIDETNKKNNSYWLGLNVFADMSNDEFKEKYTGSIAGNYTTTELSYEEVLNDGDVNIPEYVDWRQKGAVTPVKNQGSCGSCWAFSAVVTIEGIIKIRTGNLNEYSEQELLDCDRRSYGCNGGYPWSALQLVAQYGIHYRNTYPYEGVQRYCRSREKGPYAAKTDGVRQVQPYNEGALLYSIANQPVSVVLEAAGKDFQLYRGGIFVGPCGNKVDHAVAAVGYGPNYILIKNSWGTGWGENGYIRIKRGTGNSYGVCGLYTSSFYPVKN
# Assay notes: Inhibition of papaya papain using Nalpa-benzoyl-DL-arginine 4-nitroanilide hydrochloride as substrate at 30 mM incubated for 10 mins prior to substrate addition measured after 2 hrs by colorimetry
Active and inactive are the calls of the source. No cut-off for these calls is given here.
Choose one outcome from this list and give only that: active, inactive

These solved cases illustrate the format of a correct answer.
mol_smiles=CC(C)C[C@H](N)C(=O)N1CCC[C@H](NCC(N)=O)C1 class_assignment=inactive
mol_smiles=NC(=O)CN[C@@H]1CCCNC1 class_assignment=inactive
mol_smiles=CC(C)C[C@H](N)C(=O)N1CCC[C@@H](NCC(N)=O)C1 class_assignment=inactive
mol_smiles=CC(C)C[C@H](N)C(=O)NCC(=O)N1CCC[C@@H](N2CCC[C@H]2C(N)=O)C1 class_assignment=active
mol_smiles=NC(=O)[C@@H]1CCCN1C(=O)CN[C@@H]1CCCNC1 class_assignment=active

Give the logged outcome of this assay for the following compound: `NC(=O)CN[C@H]1CCCNC1`
inactive

Give the logged outcome of this assay for the following compound: `CC(C)C[C@H](N)C(=O)N1CCC[C@H](NCC(=O)N2CCC[C@H]2C(N)=O)C1`
active
